Recorded abundance fitness by entry
B1: Ankyrin-3, residues 4094 to 4171; numbered along this chain, Q12955 (parent)
chain: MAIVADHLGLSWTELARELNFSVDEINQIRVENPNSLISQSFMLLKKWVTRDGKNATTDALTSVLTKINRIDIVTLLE

variants of: B1; assay: abundance fitness (aPCA) (normalised: wild type 0, dead -1); higher = more abundant; growth selection in yeast, the domain comes from the species named; conditions: Homo sapiens
No unit in the answer, please; the number alone is enough.

| mutationList | abundance fitness |
| --- | --- |
| V4N | -0.663 |
| T58E | -0.113 |
| H7L | -0.366 |
| G53H | -0.3 |
| R30Y | -0.061 |
| V23Y | -0.534 |
| I68V | -0.284 |
| N20Q | -0.329 |

Retrieve abundance fitness measured for `I71Q` and print it.
0.136

Retrieve abundance fitness measured for `I3E` and print it.
-0.342

Retrieve abundance fitness measured for `E14Y` and print it.
-0.432
